Reported pKi is given for each of the following compounds.
Biological target: BACE-2 (human, recombinant) (Homo sapiens, UniProt Q9Y5Z0)
Sequence (Q9Y5Z0 63-518): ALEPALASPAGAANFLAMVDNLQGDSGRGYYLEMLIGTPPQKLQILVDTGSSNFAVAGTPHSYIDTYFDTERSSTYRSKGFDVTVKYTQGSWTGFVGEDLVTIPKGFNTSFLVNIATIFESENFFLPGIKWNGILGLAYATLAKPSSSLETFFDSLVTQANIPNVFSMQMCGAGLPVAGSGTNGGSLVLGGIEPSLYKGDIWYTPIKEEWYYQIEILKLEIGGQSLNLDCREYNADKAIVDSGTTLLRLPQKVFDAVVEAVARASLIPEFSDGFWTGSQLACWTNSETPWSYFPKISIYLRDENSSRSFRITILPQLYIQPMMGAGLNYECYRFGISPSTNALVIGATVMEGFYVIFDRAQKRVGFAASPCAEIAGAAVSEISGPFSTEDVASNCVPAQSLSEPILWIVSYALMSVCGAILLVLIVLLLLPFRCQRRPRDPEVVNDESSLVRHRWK
Assay: BACE-2 activity assay (fluorogenic substrate, HPLC-FLU)
Settings: pH 4.5, 37° C.; mean value ± standard deviation, n = 3; read-out: Ki^app BACE-2
Starred links: 1 amine or outer side, 2 acyl side, 3 side chain; linkers in the order of their positions; H or OH if unused. Non-standard residues stand in square brackets, D forms with d. Residues, ends and D or L forms follow the SMILES beside them. LeuΨ(S-CHOHCH2)Ala = CC(C)C[C@H](N[*:1])[C@@H](O)C[C@@H](C)C(=O)[*:2]
Units for pKi: none; it is -log10 of a concentration expressed in mol/L.

Examples with answers:
>  <Compound>
CC(=O)N[C@@H](CCC(=O)O)C(=O)N[C@@H](CC(C)C)C(=O)N[C@@H](CC(=O)O)C(=O)N[C@@H](CC(C)C)[C@@H](O)C[C@@H](C)C(=O)N[C@H](C(=O)N[C@@H](Cc1ccccc1)C(=O)N[C@@H](Cc1ccc(O)cc1)C(=O)N[C@@H](C)C(=O)N[C@@H](CCC(=O)O)C(=O)N[C@@H](CC(=O)O)C(N)=O)C(C)C [Ia] (Ac-ELD[LeuΨ(S-CHOHCH2)Ala]VFYAED-NH2)

>  <Observation Type>
pKi

>  <Assay Value>
7.74

$$$$
>  <Compound>
CC(C)C[C@H](NC(=O)[C@@H](N)CCC(=O)O)C(=O)N[C@@H](CC(=O)O)C(=O)N[C@@H](CC(C)C)[C@@H](O)C[C@@H](C)C(=O)N[C@H](C(=O)N[C@@H](Cc1ccccc1)C(=O)N[C@@H](Cc1ccc(O)cc1)C(=O)N[C@@H](C)C(=O)N[C@@H](CCC(=O)O)C(=O)N[C@@H](CC(=O)O)C(N)=O)C(C)C [Ic] (H-ELD[LeuΨ(S-CHOHCH2)Ala]VFYAED-NH2)

>  <Observation Type>
pKi

>  <Assay Value>
7.85

$$$$

Lab note: next compound to report on.
*Q* Name the recorded pKi of the compound listed here: CC(C)C[C@H](NC(=O)[C@@H](N)CCC(=O)O)C(=O)N[C@@H](CC(=O)O)C(=O)N[C@@H](CC(C)C)[C@@H](O)C[C@@H](C)C(=O)N[C@H](C(=O)N[C@@H](Cc1ccccc1)C(=O)N[C@@H](Cc1ccc(O)cc1)C(=O)N[C@@H](C)C(=O)N[C@@H](CCC(=O)O)C(=O)N[C@@H](CC(=O)O)C(=O)O)C(C)C [Ig] (H-ELD[LeuΨ(S-CHOHCH2)Ala]VFYAED-OH)
*A* 7.90

---

Reported pKi is given for each of the following compounds.
Target: BACE-2 (human, recombinant) (Homo sapiens)
Experiment: BACE-2 activity assay (fluorogenic substrate, HPLC-FLU)
Conditions: pH 4.5, 37° C.; mean value ± standard deviation, n = 3; read-out: Ki^app BACE-2
Starred links: 1 amine or outer side, 2 acyl side, 3 side chain; linkers in the order of their positions; H or OH if unused. Non-standard residues stand in square brackets, D forms with d. Residues, ends and D or L forms follow the SMILES beside them. LeuΨ(S-CHOHCH2)Ala = CC(C)C[C@H](N[*:1])[C@@H](O)C[C@@H](C)C(=O)[*:2]
Units for pKi: none; it is -log10 of a concentration expressed in mol/L.

>  <Compound>
CC(C)C[C@H](NC(=O)[C@@H](N)CCC(=O)O)C(=O)N[C@@H](CC(=O)O)C(=O)N[C@@H](CC(C)C)[C@@H](O)C[C@@H](C)C(=O)N[C@H](C(=O)N[C@@H](Cc1ccccc1)C(=O)N[C@@H](Cc1ccccc1)C(=O)N[C@@H](C)C(=O)N[C@@H](CCC(=O)O)C(=O)N[C@@H](CC(=O)O)C(N)=O)C(C)C [Id] (H-ELD[LeuΨ(S-CHOHCH2)Ala]VFFAED-NH2)

>  <pKi>
8.14

$$$$

Lab note: next compound to report on.
*Q* Name the recorded pKi of CC(C)C[C@H](NC(=O)[C@@H](N)CCC(=O)O)C(=O)N[C@@H](CC(=O)O)C(=O)N[C@@H](CC(C)C)[C@@H](O)C[C@@H](C)C(=O)N[C@H](C(=O)N[C@@H](CCC(=O)O)C(=O)N[C@@H](Cc1ccccc1)C(=O)O)C(C)C [OM00-3, reference compound] (H-ELD[LeuΨ(S-CHOHCH2)Ala]VEF-OH) , assay system BACE-2 (human, recombinant) (Homo sapiens).
*A* 8.52

---

Biological target: BACE-1 (human, recombinant) (Homo sapiens, UniProt P56817)
Construct: purchased Sigma-Aldrich
Sequence (P56817 46-501): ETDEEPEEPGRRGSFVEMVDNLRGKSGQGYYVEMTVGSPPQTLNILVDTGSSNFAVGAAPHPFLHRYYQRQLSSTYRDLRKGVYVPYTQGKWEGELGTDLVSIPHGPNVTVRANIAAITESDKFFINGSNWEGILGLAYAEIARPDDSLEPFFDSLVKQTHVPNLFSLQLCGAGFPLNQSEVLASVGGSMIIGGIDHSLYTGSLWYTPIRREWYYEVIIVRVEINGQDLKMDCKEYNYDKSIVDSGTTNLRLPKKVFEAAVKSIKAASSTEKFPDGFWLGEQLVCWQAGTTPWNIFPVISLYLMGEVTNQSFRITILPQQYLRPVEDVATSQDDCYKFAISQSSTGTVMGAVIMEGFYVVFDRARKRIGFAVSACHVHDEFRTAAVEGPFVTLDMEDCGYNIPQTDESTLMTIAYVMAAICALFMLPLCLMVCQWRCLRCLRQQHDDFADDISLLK
Test: BACE-1 activity assay (fluorogenic substrate, HPLC-FLU)
Format: biochemical
Settings: pro-BACE-1, pH 4.5, 37° C.; mean value ± standard deviation, n = 3; read-out: Ki BACE-1
Starred links: 1 amine or outer side, 2 acyl side, 3 side chain; linkers in the order of their positions; H or OH if unused. Non-standard residues stand in square brackets, D forms with d. Residues, ends and D or L forms follow the SMILES beside them. LeuΨ(S-CHOHCH2)Ala = CC(C)C[C@H](N[*:1])[C@@H](O)C[C@@H](C)C(=O)[*:2]
Observation Type: Ki (nM)
Your answer should be a plain number; it is taken to be in nM.

Examples with answers:
>  <Molecule>
CC(=O)N[C@@H](CCC(=O)O)C(=O)N[C@@H](CC(C)C)C(=O)N[C@@H](CC(=O)O)C(=O)N[C@@H](CC(C)C)[C@@H](O)C[C@@H](C)C(=O)N[C@H](C(=O)N[C@@H](Cc1ccccc1)C(=O)N[C@@H](Cc1ccc(O)cc1)C(=O)N[C@@H](C)C(=O)N[C@@H](CCC(=O)O)C(=O)N[C@@H](CC(=O)O)C(N)=O)C(C)C [Ia] (Ac-ELD[LeuΨ(S-CHOHCH2)Ala]VFYAED-NH2)

>  <Observation Type>
Ki

>  <Assay Value>
2

$$$$
>  <Molecule>
CC(C)C[C@H](NC(=O)[C@@H](N)CCC(=O)O)C(=O)N[C@@H](CC(=O)O)C(=O)N[C@@H](CC(C)C)[C@@H](O)C[C@@H](C)C(=O)N[C@H](C(=O)N[C@@H](Cc1ccccc1)C(=O)N[C@@H](Cc1ccc(O)cc1)C(=O)N[C@@H](C)C(=O)N[C@@H](CCC(=O)O)C(=O)N[C@@H](CC(=O)O)C(N)=O)C(C)C [Ic] (H-ELD[LeuΨ(S-CHOHCH2)Ala]VFYAED-NH2)

>  <Observation Type>
Ki

>  <Assay Value>
1.9

$$$$
>  <Molecule>
CC(C)C[C@H](NC(=O)[C@@H](N)CCC(=O)O)C(=O)N[C@@H](CC(=O)O)C(=O)N[C@@H](CC(C)C)[C@@H](O)C[C@@H](C)C(=O)N[C@H](C(=O)N[C@@H](Cc1ccccc1)C(=O)N[C@@H](Cc1ccccc1)C(=O)N[C@@H](C)C(=O)N[C@@H](CCC(=O)O)C(=O)N[C@@H](CC(=O)O)C(N)=O)C(C)C [Id] (H-ELD[LeuΨ(S-CHOHCH2)Ala]VFFAED-NH2)

>  <Observation Type>
Ki

>  <Assay Value>
2

$$$$

Lab note: next molecule to report on.
*Q* Name the recorded Ki of CC(C)C[C@H](NC(=O)[C@@H](N)CCC(=O)O)C(=O)N[C@@H](CC(=O)O)C(=O)N[C@@H](CC(C)C)[C@@H](O)C[C@@H](C)C(=O)N[C@H](C(=O)N[C@@H](Cc1ccccc1)C(=O)N[C@@H](Cc1ccc(O)cc1)C(=O)N[C@@H](C)C(=O)N[C@@H](CCC(=O)O)C(=O)N[C@@H](CC(=O)O)C(=O)O)C(C)C [Ig] (H-ELD[LeuΨ(S-CHOHCH2)Ala]VFYAED-OH) , assay system BACE-1 (human, recombinant) (Homo sapiens, UniProt P56817).
*A* 1.7

---

Reported half-life at 10 µM is given for each of the following compounds.
Assay: in vitro
Type: in vitro ADME, mice
Conditions: mouse, brain homogenate, t1/2 brain
Starred links: 1 amine or outer side, 2 acyl side, 3 side chain; linkers in the order of their positions; H or OH if unused. Non-standard residues stand in square brackets, D forms with d. Residues, ends and D or L forms follow the SMILES beside them. LeuΨ(S-CHOHCH2)Ala = CC(C)C[C@H](N[*:1])[C@@H](O)C[C@@H](C)C(=O)[*:2]
Your answer should be a plain number; it is taken to be in h.

Examples with answers:
>  <Compound>
CC(C)C[C@H](NC(=O)[C@@H](N)CCC(=O)O)C(=O)N[C@@H](CC(=O)O)C(=O)N[C@@H](CC(C)C)[C@@H](O)C[C@@H](C)C(=O)N[C@H](C(=O)N[C@@H](Cc1ccccc1)C(=O)N[C@@H](Cc1ccc(O)cc1)C(=O)N[C@@H](C)C(=O)N[C@@H](CCC(=O)O)C(=O)N[C@@H](CC(=O)O)C(=O)O)C(C)C [Ig] (H-ELD[LeuΨ(S-CHOHCH2)Ala]VFYAED-OH)

>  <Observation Type>
half-life at 10 µM

>  <Uom>
h

>  <Assay Value>
6

$$$$
>  <Compound>
CC(C)C[C@H](NC(=O)[C@@H](N)CCC(=O)O)C(=O)N[C@@H](CC(=O)O)C(=O)N[C@@H](CC(C)C)[C@@H](O)C[C@@H](C)C(=O)N[C@H](C(=O)N[C@@H](CCC(=O)O)C(=O)N[C@@H](Cc1ccccc1)C(=O)O)C(C)C [OM00-3, reference compound] (H-ELD[LeuΨ(S-CHOHCH2)Ala]VEF-OH)

>  <Observation Type>
half-life at 10 µM

>  <Uom>
h

>  <Assay Value>
5.8

$$$$
>  <Compound>
CC(C)C[C@H](NC(=O)[C@@H](N)CCC(=O)O)C(=O)N[C@@H](CC(=O)O)C(=O)N[C@@H](CC(C)C)[C@@H](O)C[C@@H](C)C(=O)N[C@H](C(=O)N[C@@H](Cc1ccccc1)C(=O)N[C@@H](Cc1ccc(O)cc1)C(=O)N[C@@H](C)C(=O)N[C@@H](CCC(=O)O)C(=O)N[C@@H](CC(=O)O)C(N)=O)C(C)C [Ic] (H-ELD[LeuΨ(S-CHOHCH2)Ala]VFYAED-NH2)

>  <Observation Type>
half-life at 10 µM

>  <Uom>
h

>  <Assay Value>
2.3

$$$$

*Q* Name the recorded half-life at 10 µM of the compound listed here: CC(=O)N[C@@H](CCC(=O)O)C(=O)N[C@@H](CC(C)C)C(=O)N[C@@H](CC(=O)O)C(=O)N[C@@H](CC(C)C)[C@@H](O)C[C@@H](C)C(=O)N[C@H](C(=O)N[C@@H](Cc1ccccc1)C(=O)N[C@@H](Cc1ccc(O)cc1)C(=O)N[C@@H](C)C(=O)N[C@@H](CCC(=O)O)C(=O)N[C@@H](CC(=O)O)C(N)=O)C(C)C [Ia] (Ac-ELD[LeuΨ(S-CHOHCH2)Ala]VFYAED-NH2)
*A* 3.4
